# System Tested: PI3K-beta (Homo sapiens, UniProt P42338)
# Sequence (P42338 whole entry, species assumed): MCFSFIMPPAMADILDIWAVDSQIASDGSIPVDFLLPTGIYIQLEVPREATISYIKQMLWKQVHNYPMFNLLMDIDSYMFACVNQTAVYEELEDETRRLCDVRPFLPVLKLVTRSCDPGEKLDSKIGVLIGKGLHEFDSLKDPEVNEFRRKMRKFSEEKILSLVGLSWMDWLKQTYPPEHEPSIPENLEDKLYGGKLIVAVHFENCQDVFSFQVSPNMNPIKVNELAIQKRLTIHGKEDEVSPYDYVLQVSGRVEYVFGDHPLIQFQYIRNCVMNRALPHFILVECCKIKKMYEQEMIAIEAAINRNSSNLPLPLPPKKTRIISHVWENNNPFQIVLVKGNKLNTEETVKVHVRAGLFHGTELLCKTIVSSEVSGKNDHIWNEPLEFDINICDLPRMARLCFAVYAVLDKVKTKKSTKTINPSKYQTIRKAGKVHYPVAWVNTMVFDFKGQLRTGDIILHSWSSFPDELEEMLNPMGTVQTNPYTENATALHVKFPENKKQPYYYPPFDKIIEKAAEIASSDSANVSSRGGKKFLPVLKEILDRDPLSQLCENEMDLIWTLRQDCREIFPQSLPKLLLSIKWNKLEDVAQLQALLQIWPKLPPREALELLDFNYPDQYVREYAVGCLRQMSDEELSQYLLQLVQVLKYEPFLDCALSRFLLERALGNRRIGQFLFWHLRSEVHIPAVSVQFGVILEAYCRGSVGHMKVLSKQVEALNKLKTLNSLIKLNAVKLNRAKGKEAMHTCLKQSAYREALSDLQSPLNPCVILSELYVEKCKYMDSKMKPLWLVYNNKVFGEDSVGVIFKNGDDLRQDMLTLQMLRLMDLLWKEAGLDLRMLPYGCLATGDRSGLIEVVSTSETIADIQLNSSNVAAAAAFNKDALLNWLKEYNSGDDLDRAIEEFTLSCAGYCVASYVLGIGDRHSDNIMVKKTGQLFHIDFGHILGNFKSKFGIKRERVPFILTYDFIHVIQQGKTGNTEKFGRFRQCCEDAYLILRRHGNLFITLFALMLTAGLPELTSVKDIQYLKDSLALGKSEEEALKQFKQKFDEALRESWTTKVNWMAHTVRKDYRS
# Sequence (P27986 whole entry partner, species assumed): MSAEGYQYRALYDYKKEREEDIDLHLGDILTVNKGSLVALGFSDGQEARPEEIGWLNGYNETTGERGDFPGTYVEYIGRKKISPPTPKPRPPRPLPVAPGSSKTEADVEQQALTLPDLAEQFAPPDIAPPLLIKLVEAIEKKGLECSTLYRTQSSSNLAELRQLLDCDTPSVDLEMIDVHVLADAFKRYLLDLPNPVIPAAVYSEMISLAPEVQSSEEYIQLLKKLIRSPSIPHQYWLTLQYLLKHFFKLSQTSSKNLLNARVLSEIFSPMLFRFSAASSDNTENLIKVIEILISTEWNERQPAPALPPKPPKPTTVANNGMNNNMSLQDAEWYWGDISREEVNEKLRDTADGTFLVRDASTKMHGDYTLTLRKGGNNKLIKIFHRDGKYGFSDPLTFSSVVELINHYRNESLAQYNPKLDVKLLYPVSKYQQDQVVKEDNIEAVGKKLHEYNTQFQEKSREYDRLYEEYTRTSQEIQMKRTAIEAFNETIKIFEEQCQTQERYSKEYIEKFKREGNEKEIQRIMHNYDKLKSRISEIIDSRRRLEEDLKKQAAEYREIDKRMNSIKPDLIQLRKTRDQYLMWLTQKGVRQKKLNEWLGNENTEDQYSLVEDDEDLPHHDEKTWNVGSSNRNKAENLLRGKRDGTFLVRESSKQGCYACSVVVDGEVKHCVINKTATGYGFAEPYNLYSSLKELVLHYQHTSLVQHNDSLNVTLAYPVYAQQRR
Note that class boundaries on IC50 are LOW = under 20 nM, MID = from 20 nM up to 100 nM, HIGH = 100 nM and over

Molecule: COc1ccc2c(c1)c(/C=C1\Oc3cc(O)ccc3C1=O)c(C)n2CCCN(C)C [Example 307]
Group Label: MID
//
Molecule: O=C1C(=Cc2c(-c3ccccc3)[nH]c3ccccc23)Oc2cc(O)cc(O)c21 [Example 14]
Group Label: HIGH
//
Molecule: COc1ccc2[nH]c(-c3ccccc3)c(/C=C3\Oc4cccc(O)c4C3=O)c2c1 [Example 304]
Group Label: HIGH
//
Molecule: COc1ccc2c(c1)c(/C=C1\Oc3cc(O)cc(O)c3C1=O)c(C(F)(F)F)n2CC(=O)N(C)C [Example 333]
Group Label: HIGH
//
Molecule: O=C1/C(=C/c2c[nH]c3ccc(Br)cc23)Oc2cc(O)cc(O)c21 [Example 50]
Group Label: HIGH
//
Molecule: COc1ccc2c(c1)c(/C=C1\Oc3cc(O)cc(O)c3C1=O)c(C1CC1)n2CCn1ccnc1 [Example 334]
Group Label: LOW
//
Molecule: COc1ccc2c(c1)c(/C=C1\Oc3cc(O)cc(O)c3C1=O)c(-c1cnn(C)c1)n2CCN1CCN(C)CC1 [Example 341]
Group Label: LOW
//
Molecule: COc1ccc2c(c1)c(/C=C1\Oc3cc(O)ccc3C1=O)c(C(=O)N(C)C)n2CCN1CCN(C)CC1 [Example 335]
Group Label: MID

Which IC50 band matches COc1ccc2c(c1)c(C=C1Oc3cc(O)cc(O)c3C1=O)cn2CCCN1CCOCC1 [Example 112] ?
HIGH

Which IC50 band matches COc1ccc2c(c1)c(/C=C1\Oc3cc(O)cc(O)c3C1=O)c(C)n2CCCN(C)C [Example 305] ?
MID

Which IC50 band matches O=C1/C(=C/c2c(-c3ccc(F)cc3)[nH]c3ccccc23)Oc2c1ccc(O)c2O [Example 56] ?
HIGH

Which IC50 band matches COc1ccc2c(c1)c(/C=C1\Oc3cc(O)cc(O)c3C1=O)c(C(=O)N(C)C)n2CCO [Example 348] ?
MID

Which IC50 band matches COc1ccc2[nH]cc(/C=C3\Oc4cc(O)cc(O)c4C3=O)c2c1 [Example 59] ?
HIGH

Which IC50 band matches COc1ccc2c(c1)c(/C=C1\Oc3cc(O)ccc3C1=O)c(C1CC1)n2CCN1CCN(C)CC1 [Example 362] ?
LOW

Which IC50 band matches COc1ccc2c(c1)c(/C=C1\Oc3cc(O)cc(O)c3C1=O)c(C(=O)N(C)C)n2CCN1CCN(C)CC1 [Example 316] ?
MID

Which IC50 band matches COc1ccc2[nH]c(-c3ccccc3)c(C=C3Oc4cc(O)cc(O)c4C3=O)c2c1 [Example 70] ?
MID

Which IC50 band matches COc1ccc2c(c1)c(/C=C1\Oc3cc(O)cc(O)c3C1=O)c(C)n2CCn1ccnc1 [Example 328] ?
LOW

Which IC50 band matches COc1ccc2c(c1)c(C=C1Oc3cc(O)cc(O)c3C1=O)c(C)n2C [Example 89] ?
LOW

Which IC50 band matches COc1ccc2c(c1)c(C=C1Oc3cc(O)cc(O)c3C1=O)c(C)n2CCN1CCOCC1 [Example 107] ?
HIGH

Which IC50 band matches COc1ccc2c(c1)c(/C=C1\Oc3cc(O)cc(O)c3C1=O)c(C)n2CCN1CCN(C)CC1 [Example 309] ?
LOW

Which IC50 band matches COc1ccc2c(c1)c(C=C1Oc3cc(O)cc(O)c3C1=O)c(C)n2CCN1CCN(C)CC1 [Example 108] ?
LOW

Which IC50 band matches COc1ccc2c(c1)c(C=C1Oc3cc(O)cc(O)c3C1=O)c(C)n2CCCCN1CCN(C)CC1 [Example 96] ?
LOW

Which IC50 band matches COC(=O)c1ccc2[nH]cc(C=C3Oc4cc(O)cc(O)c4C3=O)c2c1 [Example 166] ?
MID

Which IC50 band matches COc1ccc2c(c1)c(C=C1Oc3cc(O)cc(O)c3C1=O)cn2CCN1CCN(CCO)CC1 [Example 111] ?
HIGH

Which IC50 band matches COc1ccc2c(c1)c(/C=C1\Oc3cc(O)cc(O)c3C1=O)c(C1CC1)n2CCN1CCC(O)C1 (centres unmarked) [Example 342] ?
LOW

Which IC50 band matches COc1cc2c(C=C3Oc4cc(O)cc(O)c4C3=O)c(C)n(C)c2cc1C [Example 185] ?
MID
